target-or-test-system: CYP3A4 (Homo sapiens)
Sequence (P08684 whole entry): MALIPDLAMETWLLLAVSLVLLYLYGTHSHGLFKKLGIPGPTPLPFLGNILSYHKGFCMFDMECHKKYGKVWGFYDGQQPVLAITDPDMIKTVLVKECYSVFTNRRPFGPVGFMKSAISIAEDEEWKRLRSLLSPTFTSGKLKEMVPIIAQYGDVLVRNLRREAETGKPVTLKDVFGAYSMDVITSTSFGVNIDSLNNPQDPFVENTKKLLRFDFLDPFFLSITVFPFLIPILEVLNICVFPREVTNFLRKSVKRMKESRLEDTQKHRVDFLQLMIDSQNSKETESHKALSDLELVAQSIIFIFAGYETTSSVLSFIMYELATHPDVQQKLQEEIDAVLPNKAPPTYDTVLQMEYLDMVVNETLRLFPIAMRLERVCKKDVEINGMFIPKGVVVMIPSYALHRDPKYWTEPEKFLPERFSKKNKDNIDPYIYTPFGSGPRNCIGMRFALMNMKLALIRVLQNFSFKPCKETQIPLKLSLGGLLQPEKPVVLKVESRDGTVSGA
assay-text: Determination of CYP3A4 inhibitory activity (human liver microsome, Luciferin-IPA)
condition-description: CYP3A4 IC50 (nM), 37° C. 11 minutes
Catalogue of compounds with associated IC50

{"columns": ["smi", "IC50"],
 "data": [
  ["COc1cc(NC(=O)c2cc(=O)c3ccccc3o2)c(C(=O)Nc2ccc(CCN(Cc3ccc4c(cnn4C)c3)Cc3ccncc3F)cc2)cc1OC", "250 to 500 nM"],
  ["CCN(CCc1ccc(NC(=O)c2cc(OC)c(OC)cc2NC(=O)c2cc(=O)c3ccccc3o2)cc1)Cc1ccc2c(c1)n(C)c(=O)n2C", "> 1000 nM"],
  ["COc1cc(NC(=O)c2cc(=O)c3ccccc3o2)c(C(=O)Nc2ccc(CCN)cc2)cc1OC", "> 1000 nM"]
]}

---

target-or-test-system: CYP3A4 (Homo sapiens)
assay-text: Determination of CYP3A4 inhibitory activity (human liver microsome, Luciferin-IPA)
condition-description: CYP3A4 IC50 (nM), 37° C. 11 minutes
Method: The standard final Compound concentrations were 37, 111, 333, 1000, and 3000 nM. 12.5 μL of the Compound dilutions were transferred to a white 96-well plate. […] 25 μL of the buffer was added to each well. The plates were incubated at 37° C. for 11 minutes. 50 μL of luciferin detection reagent (Promega V9002) was added and the plates were incubated at room temperature for 5 minutes. The plate was read with a luminometer. […]
property: IC50

{"columns": ["molecule", "target-or-test-system", "property", "obs-value"],
 "data": [
  ["CCn1ncc2cc(CN(CCc3ccc(NC(=O)c4cc(OC)c(OC)cc4NC(=O)C4CC(=O)c5ccccc5O4)cc3)Cc3cccc(-n4ccnc4)c3)ccc21 (stereo not drawn)", "CYP3A4 (Homo sapiens)", "IC50", "500 to 1000 nM"],
  ["COc1cc(NC(=O)C2CC(=O)c3ccccc3O2)c(C(=O)Nc2ccc(CCN(Cc3cccc(-n4ccnc4)c3)Cc3cc(OC)c(OC)c(OC)c3)cc2)cc1OC (stereo not drawn)", "CYP3A4 (Homo sapiens)", "IC50", "< 100 nM"],
  ["CN(CCc1ccc(NC(=O)c2ccc(C(=O)OCc3cccnc3)cc2NC(=O)c2cc(=O)c3ccccc3o2)cc1)Cc1ccc2c(cnn2C)c1", "CYP3A4 (Homo sapiens)", "IC50", "> 1000 nM"],
  ["COc1cc(NC(=O)C2CC(=O)c3ccccc3O2)c(C(=O)Nc2ccc(CCN(C)Cc3ccc(-c4ccncc4)cc3)cc2)cc1OC (stereo not drawn)", "CYP3A4 (Homo sapiens)", "IC50", "> 1000 nM"],
  ["COc1cc(NC(=O)c2cc(=O)c3ccccc3o2)c(C(=O)Nc2ccc(CCN(Cc3cccc(-n4ccnc4)c3)Cc3ccc4cnn(C)c4c3)cc2)cc1OC", "CYP3A4 (Homo sapiens)", "IC50", "< 100 nM"],
  ["COc1cc(NC(=O)c2cc(=O)c3ccccc3o2)c(C(=O)Nc2ccc(CCN(C)Cc3cccc(-n4ccnc4)c3)cc2)cc1OC", "CYP3A4 (Homo sapiens)", "IC50", "100 to 250 nM"],
  ["CCN(CCc1ccc(NC(=O)c2cc(OC)c(OC)cc2NC(=O)c2cc(=O)c3ccccc3o2)cc1)Cc1cccn1Cc1cccnc1", "CYP3A4 (Homo sapiens)", "IC50", "250 to 500 nM"],
  ["Cn1ncc2cc(CNCCc3ccc(NC(=O)c4ccc(C(=O)O)cc4NC(=O)c4cc(=O)c5ccccc5o4)cc3)ccc21", "CYP3A4 (Homo sapiens)", "IC50", "> 1000 nM"],
  ["COC(=O)c1ccc(C(=O)Nc2ccc(CCN(C)Cc3ccc4c(cnn4C)c3)cc2)c(NC(=O)c2cnc3ccccc3c2)c1", "CYP3A4 (Homo sapiens)", "IC50", "> 1000 nM"],
  ["C#Cc1ccc(CN(C)CCc2ccc(NC(=O)c3cc(OC)c(OC)cc3NC(=O)c3cc(=O)c4ccccc4o3)cc2)cc1", "CYP3A4 (Homo sapiens)", "IC50", "> 1000 nM"],
  ["COC(=O)c1ccc(C(=O)Nc2ccc(CCN(Cc3cncc(OC)c3)Cc3ccc4c(cnn4C)c3)cc2)c(NC(=O)c2cc(=O)c3ccccc3[nH]2)c1", "CYP3A4 (Homo sapiens)", "IC50", "100 to 250 nM"],
  ["COCCOc1cncc(CN(CCc2ccc(NC(=O)c3cc(OC)c(OC)cc3NC(=O)c3cnc4ccccc4c3)cc2)Cc2ccc3c(cnn3C)c2)c1", "CYP3A4 (Homo sapiens)", "IC50", "250 to 500 nM"]
]}

Data provenance is patent US20220106301A1.
